Exercise: for every item that follows, state its recorded fold induction at 50 µM.
system: E. faecium; assay: AK assay 384-well format, Prestwick library screening; assay type: cell-based, Enterococcus faecium; conditions: Enterococcus faecium, 3 h; 50 μM final drug concentration; 384-well format; cutoff for positive-scoring molecules 3-fold increase; read-out: AK-based Prestwick Library Screening Results, E. faecium (increase in extracellular AK activity)
Where a name gives a salt, the structure may show the parent alone.
One number for each entry.

CC(=O)Oc1ccccc1C(=O)Oc1ccccc1C(=O)O; 1
c1ccc([C@H]2CN3CCSC3=N2)cc1 [Levamisole hydrochloride]; 1
Clc1ccc2c(c1)C(N1CCNCC1)=Nc1ccccc1O2; 0.9

Could you tell me fold induction at 50 µM for each of these compounds? They are listed below.
1. CCCCNC(=O)NS(=O)(=O)c1ccc(C)cc1 [Tolbutamide]
2. CCc1nc(N)nc(N)c1-c1ccc(Cl)cc1
3. Clc1ccc(C(Cn2ccnc2)OCc2c(Cl)cccc2Cl)c(Cl)c1 (centres unmarked)
4. C[C@]12C=CC(=O)C=C1CC[C@@H]1[C@@H]2[C@@H](O)C[C@@]2(C)[C@H]1CC[C@]2(O)C(=O)CO
5. N[C@@H](Cc1ccc(O)c(O)c1)C(=O)O
6. CC(C)N(CCC(C(N)=O)(c1ccccc1)c1ccccn1)C(C)C (centres unmarked) [Disopyramide]

// result
1. 1
2. 1
3. 1.8
4. 1
5. 0.8
6. 0.9

Could you tell me fold induction at 50 µM for each of these compounds? They are listed below.
1. CC1(C)S[C@@H]2[C@H](NC(=O)[C@H](N)c3ccccc3)C(=O)N2[C@H]1C(=O)O [Ampicillin trihydrate]
2. CCCCNc1cc(C(=O)O)cc(S(N)(=O)=O)c1Oc1ccccc1 [Bumetanide]
3. O=C(O)c1cccnc1Nc1cccc(C(F)(F)F)c1

// result
1. 1.1
2. 0.9
3. 0.9

Could you tell me fold induction at 50 µM for each of these compounds? They are listed below.
1. C=C(CC)C(=O)c1ccc(OCC(=O)O)c(Cl)c1Cl
2. C[C@H](CS)C(=O)N1CCC[C@H]1C(=O)O
3. Cc1cc(NS(=O)(=O)c2ccc(N)cc2)no1
4. C#C[C@]1(O)CC[C@H]2[C@@H]3CCC4=Cc5oncc5C[C@]4(C)[C@H]3CC[C@@]21C

// result
1. 1.3
2. 1
3. 1
4. 0.9

Could you tell me fold induction at 50 µM for each of these compounds? They are listed below.
1. CCn1cc(C(=O)O)c(=O)c2cc3c(cc21)OCO3
2. OC(c1cc(C(F)(F)F)nc2c(C(F)(F)F)cccc12)C1CCCCN1 (centres unmarked) [Mefloquine hydrochloride]
3. CCCc1ncc(C[n+]2ccccc2C)c(N)n1 [Amprolium hydrochloride]
4. CCC1(C)CC(=O)NC1=O (centres unmarked) [Ethosuximide]

// result
[1.1, 1, 0.9, 0.9]

* * *

system: P. aeruginosa; assay: AK assay 384-well format, Prestwick library screening; format: cell-based, Pseudomonas aeruginosa; details: Pseudomonas aeruginosa, 3 h; 50 μM final drug concentration; cutoff for positive-scoring molecules 3-fold increase; read-out: AK-based Prestwick Library Screening Results, P. aeruginosa (fold increase in extracellular AK activity)
Where a name gives a salt, the structure may show the parent alone.
Exercise: for every item that follows, state its recorded fold induction at 50 µM.
One number for each entry.

Completed entries (count: 3):
CCOC(=O)Nc1ccc2c(c1)N(C(=O)CCN1CCOCC1)c1ccccc1S2 [Moricizine hydrochloride]; 0.6
COc1ccc(-c2cc(=O)c3c(O)cc(O)cc3o2)cc1; 0.6
NS(=O)(=O)c1cc2c(cc1C(F)(F)F)NC(Cc1ccccc1)NS2(=O)=O (centres unmarked) [Bendroflumethiazide]; 1.1

Could you tell me fold induction at 50 µM for each of these molecules? They are listed below.
1. CCCC(C(=O)OCCN(CC)CC)(c1ccccc1)c1ccccc1 [Proadifen hydrochloride]
2. S=C(NC1CCCCC1)N1CCC(c2cnc[nH]2)CC1 [Thioperamide maleate]
3. CCC1NC(=O)c2cc(S(N)(=O)=O)c(Cl)cc2N1 (centres unmarked)
4. CO/N=C(\C(=O)N[C@@H]1C(=O)N2C(C(=O)O)=C(COC(N)=O)CS[C@H]12)c1ccco1 [Cefuroxime sodium salt]
5. C=CCOC(Cn1ccnc1)c1ccc(Cl)cc1Cl (centres unmarked)

// result
1.1
1.3
0.5
1.6
0.4

Could you tell me fold induction at 50 µM for each of these molecules? They are listed below.
1. Cc1cc(C)nc(NS(=O)(=O)c2ccc(N)cc2)n1 [Sulfamethazine sodium salt]
2. CC(C)[N+](C)(CCC(C(N)=O)(c1ccccc1)c1ccccc1)C(C)C [Isopropamide iodide]
3. CC(C)(C)C(=O)OCOC(=O)[C@@H]1N2C(=O)[C@@H](/N=C/N3CCCCCC3)[C@H]2SC1(C)C [Pivmecillinam hydrochloride]
4. C/C=C(/C(=C/C)c1ccc(O)cc1)c1ccc(O)cc1
5. CCC1(c2ccccc2)C(=O)NCNC1=O

// result
1: 1.1; 2: 1.2; 3: 0.6; 4: 1.1; 5: 1.2

# fold induction at 50 µM (molecule: c1ccc2c(c1)OCC(C1=NCCN1)O2 (centres unmarked) [Idazoxan hydrochloride] ) is 1.2

* * *

tested on: S. aureus strain USA300-0114; test: AK assay 384-well format, Prestwick library screening; assay type: cell-based, Staphylococcus aureus; details: Staphylococcus aureus, USA300, 3 h; 50 μM final drug concentration; 384-well format; cutoff for positive-scoring molecules 3-fold increase; read-out: AK-based Prestwick Library Screening Results, S. aureus (increase in extracellular AK activity)
Counter-ions that a name gives are not always drawn.
Measurement Name: fold induction at 50 µM
Answers are plain numbers.

Completed entries (count: 6):
N=C(N)N/N=C/c1c(Cl)cccc1Cl [Guanabenz acetate]; 0.5
COc1ccc(C(=O)NCc2cccnc2)cc1C(=O)NCc1cccnc1 [Picotamide monohydrate]; 0.7
CC(N/C(=N\C#N)Nc1ccncc1)C(C)(C)C (stereo not drawn); 0.5
CN1CCC(=C2c3ccccc3C=Cc3ccccc32)CC1 [Cyproheptadine hydrochloride]; 0.6
Nc1ccc(S(=O)(=O)Nc2ccnn2-c2ccccc2)cc1; 0.8
Cc1ncc([N+](=O)[O-])n1CCO; 0.4

Could you tell me fold induction at 50 µM for each of these molecules? They are listed below.
1. CC1=NS(=O)(=O)c2cc(Cl)ccc2N1 [Diazoxide]
2. CC[C@]12CCCN3CCc4c(n(c5ccccc45)[C@@](O)(C(=O)OC)C1)[C@@H]32
3. CCOC(=O)C1=C[C@]2(CC)CCCN3CCc4c(n1c1ccccc41)[C@@H]32
4. Nc1ccc(S(=O)(=O)Nc2nccs2)cc1
5. Nc1nc2c(ncn2COCCO)c(=O)[nH]1

// result
[0.5, 0.7, 0.8, 0.6, 0.5]

* * *

tested on: K. pneumoniae; experiment: AK assay 384-well format, Prestwick library screening; assay type: cell-based, Klebsiella pneumoniae; settings: Klebsiella pneumoniae, 3 h; 50 μM final drug concentration; planktonic; cutoff for positive-scoring molecules 3-fold increase; read-out: AK-based Prestwick Library Screening Results, K. pneumoniae (fold increase in extracellular AK activity)
Structures can show the parent of a compound that is named as a salt. Where a SMILES comes first, the peptide text is derived from it. Bridges are numbered along the chain shown (N, C = ends). [ ]: non-standard residue; d: D form. The star is where a group is joined. Ileψ(thiazoline)Cys = CC[C@H](C)[C@H](N)C1=N[C@H](C(=O)*)CS1; dOrn = NCCC[C@@H](N)C(=O)O
Measurement Name: fold induction at 50 µM
Numbers only.

Completed entries (count: 5):
COCCOC(=O)C1=C(C)NC(C)=C(C(=O)OC(C)C)C1c1cccc([N+](=O)[O-])c1 (stereo not drawn); 0.7
CCCCOC(=O)c1ccc(N)cc1; 0.6
NC(=O)c1cc[n+](CC2=C(C(=O)O)N3C(=O)[C@@H](NC(=O)[C@@H](c4ccccc4)S(=O)(=O)[O-])[C@H]3SC2)cc1 [Cefsulodin sodium salt]; 0.7
O=P1(NCCCl)OCCCN1CCCl (stereo not drawn) [Ifosfamide]; 0.7
Nc1ccccc1S(N)(=O)=O [Compound 2-Aminobenzenesulfonamide, 2-Aminobenzenesulfonamide]; 0.7

Let us examine a further case.
# fold induction at 50 µM (compound: CC[C@H](C)[C@H](N)C1=N[C@H](C(=O)N[C@@H](CC(C)C)C(=O)N[C@H](CCC(=O)O)C(=O)N[C@H](C(=O)N[C@H]2CCCCNC(=O)[C@H](CC(N)=O)NC(=O)[C@@H](CC(=O)O)NC(=O)[C@H](Cc3cnc[nH]3)NC(=O)[C@@H](Cc3ccccc3)NC(=O)[C@H]([C@@H](C)CC)NC(=O)[C@@H](CCCN)NC2=O)[C@@H](C)CC)CS1 [Bacitracin] ({Ileψ(thiazoline)Cys}-L[dE]IK[dOrn]I[dF]H[dD]N; lactam 4-C) ) is 0.8

* * *

tested on: P. aeruginosa; test: AK assay 384-well format, Prestwick library screening; type: cell-based, Pseudomonas aeruginosa; settings: Pseudomonas aeruginosa, 3 h, planktonic P. aeruginosa; 50 μM final drug concentration; […]; read-out: AK-based Prestwick library screening result, P. aeruginosa (fold increase in extracellular AK activity)
Where a name gives a salt, the structure may show the parent alone.
Exercise: for every item that follows, state its recorded fold induction at 50 µM.
Give bare numbers.

CCC1(c2cccc(O)c2)CCCCN(C)C1 (stereo not shown) [Meptazinol hydrochloride]; 1.1
CCN1C[C@]2(COC)CC[C@H](O)[C@@]34C5C[C@@H]6[C@@H](OC)C[C@](O)(C(CC23)C14)C5[C@H]6OC(C)=O (stereo partly shown); 1
CC1(C)S[C@@H]2[C@H](NC(=O)[C@H](N)c3ccccc3)C(=O)N2[C@H]1C(=O)OC1OC(=O)c2ccccc21 (stereo partly shown) [Talampicillin hydrochloride]; 1.1

Let us examine a further case.
# fold induction at 50 µM (molecule: O=c1[nH]c(=O)n([C@H]2C[C@H](O)[C@@H](CO)O2)cc1C(F)(F)F ) is 0.6
